Experiment: melting temperature; fluorescence melt of hairpins on a sequencing array, two-state fit, raised by 9.35 °C to match UV melts
Details: sodium 0.088 M
result-type: Tm (°C)
Respond numerically; units are °C and should not be typed.

Prompt line: Tell me the measured Tm of GGGCCTGGAAACGGGTCC ((.((.(....).)).)) , please.
Response line: 50.9

Prompt line: Note, next up: GGCGATGGAAACATCGTC (.(((((....))))).)
Response line: 56.5

Prompt line: Here is the next sequence: GAGGGCGAAAGCCTACTC ((((((....)))..)))
Response line: 41.1

Others:
Prompt line: Can you look up the measured Tm of GCTGCGGGAAACCGTAGC (((.(((....))).))) for me?
Response line: 58.5

----------
Assay: melting temperature; fluorescence melt of hairpins on a sequencing array, two-state fit, raised by 9.35 °C to match UV melts
Conditions: sodium 0.088 M
result-type: Tm (°C)
State just the number; it will be interpreted in °C.

Prompt line: Fill in the blank: the reported Tm of GATCGAACTTTCGATC ((((((....)))))) is ____.
Response line: 53.4

Prompt line: How about this sequence: GCACGCGAAAGCGCTTGC ((((((....)))..)))
Response line: 42.8

Prompt line: Same read-out for GTTTCGCGAAAGCGAAC (((.(((....)))))) ?
Response line: 53.9

Prompt line: Param item: GATCCCCGATGGGATC ((((((....))))))
Response line: 60.9

Prompt line: Then GATCTTCAAGAAGATC ((((((....)))))) ?
Response line: 46

More entries:
Prompt line: Find the recorded Tm belonging to GATCCGGCGCGGATC ((((((...)))))) and report it.
Response line: 59.3

----------
Assay: folding enthalpy; higher = less favourable; fluorescence melt of hairpins on a sequencing array, two-state fit
Details: sodium 0.088 M
Catalogue of folding enthalpy readings, one per entry.
Write the value in kcal/mol as a bare number.

For orientation, consider the following solved cases.
Prompt line: Would you kindly share the measured folding enthalpy for GAGTTTGGAAACAGACTC ((((.((....)).)))) ?
Response line: -28.3

Prompt line: Then what about the sequence GGTAGTGGAAACACTGTC (..((((....))))..) ?
Response line: -20.9

Prompt line: Input GTGACTCGAAAGAGACAC (((.(((....))).)))
Response line: -32.1

Prompt line: How about GCGGATCACCGC ((((....)))) ?
Response line: -25.8

Prompt line: Continue with GTTAGTGGAAACACTGAC ((.((((....)))).))
Response line: -24.2

Now for another entry.
Prompt line: Returns the measured folding enthalpy for the input sequence. Input: GCTATGCGAAAGCCTTGC ((.(.((....)).).))
Response line: -12.7

----------
Reported folding enthalpy values for a set of sequences
Assay: folding enthalpy; higher = less favourable; fluorescence melt of hairpins on a sequencing array, two-state fit
Details: sodium 0.088 M
Unit kcal/mol implied. Number only.

Prompt line: Requested field: folding enthalpy. Item: GGTGCCGGAAACGACACC ((((.((....)).))))
Response line: -44.9

Prompt line: Also need GGCAGTCGAAAGACGCC (((.(((....)))))) , thanks.
Response line: -26.6

Prompt line: What do we get for GATCAGTATGCTGATC ((((((....)))))) ?
Response line: -36.1

Prompt line: Next sequence: GATCTTATACAAGATC ((((((....))))))
Response line: -33.8

Prompt line: Next sequence up: TGTCTGAAAAGACA (((((....)))))
Response line: -20.4

Prompt line: Thanks! And GATCTAATAGTAGATC ((((((....)))))) ?
Response line: -29.4

---
Prompt line: Need folding enthalpy of GATCTAGCCCTAGATC ((((((....)))))) , thanks.
Response line: -37

Prompt line: Now this one: GGCTCTGGAAACAAAGCC ((((.((....)).))))
Response line: -29.9

Prompt line: Please give the result for GACCACGGAAACATGGTC (((((.(....).))))) too.
Response line: -35.5

Prompt line: Quick one: GTCCTGGGAAACCAAGAC (((.(((....))).)))
Response line: -22.4

Prompt line: Likewise for GGGGTCGAAAGACTGCCC ((((((....)))..))) ?
Response line: -16.2

Prompt line: Similarly, GCTCCCGGAAACGGGGGC ((.((((....)))).)) ?
Response line: -26.7

----------
Experiment: melting temperature; fluorescence melt of hairpins on a sequencing array, two-state fit, raised by 9.35 °C to match UV melts
Details: sodium 0.088 M
Please mark rule met if the recorded Tm is equal to or greater than 50 °C, and rule not met if it falls below.

Prompt line: Hi team, for GATCACCCTCGTGATC ((((((....)))))) , is the recorded Tm at or above 50 °C?
Response line: rule met

Prompt line: Same again, this time with GATCTCTGCGGAGATC ((((((....))))))
Response line: rule met

Prompt line: Also check GCAGCGCGAAAGCTCCGC ((.(.((....)).).))
Response line: rule not met

Others:
Prompt line: Could you please find out whether GCTCGTCCGAAAGGAAGC (((..(((....)))))) has Tm that meets 50 °C or exceeds it?
Response line: rule not met

Prompt line: For GTTGGATCGAAAGATAAC (((..(((....)))))) then?
Response line: rule not met

Prompt line: Note, next up: GATCAATTTTTGATC ((((((...))))))
Response line: rule not met

Prompt line: Another sequence: GCGGTTCGAAAGAAACGC (((.(((....))).)))
Response line: rule met

Prompt line: And what about the sequence GCTAGGCGAAAGCCGTGC ((..(((....)))..)) ?
Response line: rule met

----------
Test: melting temperature; fluorescence melt of hairpins on a sequencing array, two-state fit, raised by 9.35 °C to match UV melts
Conditions: sodium 0.088 M
The entries below are paired with their reported Tm.
State just the number; it will be interpreted in °C.

Field: example entries. Status: answers known.
Prompt line: What Tm value was documented for this sequence, GCCGACGAAAGTCCTGGC ((((((....)))..))) ?
Response line: 45.1

Prompt line: Also GATATTACGAAAGTAATC (((..(((....)))))) ?
Response line: 34.7

Prompt line: Same question for GCATGGGAAACCATGC ((((((....)))))) please.
Response line: 65.6

Please look at the following sequence next.
Prompt line: Entry GTGGGTCGAAAGACCAC (((.(((....)))))) has what Tm?
Response line: 57

----------
Assay: folding enthalpy; higher = less favourable; fluorescence melt of hairpins on a sequencing array, two-state fit
Conditions: sodium 0.088 M
The following sequences are listed with their measured folding enthalpy values.
The response must be a number in kcal/mol with no trailing unit.

For orientation, consider the following solved cases.
Prompt line: Item under review: GATGAGCGAAAGCTAATC (((.(((....))).))) . Reported folding enthalpy?
Response line: -24.9

Prompt line: What about this sequence? GATCCGGGTTCGGATC ((((((....))))))
Response line: -44.7

Prompt line: Thanks! And GATCATTGGTATGATC ((((((....)))))) ?
Response line: -31.8

Prompt line: Would you kindly repeat that for GGATAGGGAAACCCATCC ((((.((....)).)))) ?
Response line: -29.4

Prompt line: Field entry: GCTATGCCGAAAGGCAGC (((..(((....))))))
Response line: -12.1

Further cases:
Prompt line: Given the sequence GATCTCTTAAGAGATC ((((((....)))))) , what is its reported folding enthalpy?
Response line: -37.3

Prompt line: What about GTAAGAGGAAACTCTTGC (.(((((....))))).) ?
Response line: -25

Prompt line: Thanks! And TGTCAGAAATGACA (((((....))))) ?
Response line: -17.6

Prompt line: Then GAACACGAAAGTGCTTTC ((((((....)))..))) ?
Response line: -13

Prompt line: Same thing, different sequence: GGACGTGGAAACACATCC (((.(((....))).)))
Response line: -25.9

Prompt line: GCTGTCGAAAGACGCAGC ((((((....)))..))) , same question.
Response line: -14.1

Prompt line: What do you get for GTTGCCGAAAGGCACAAC ((((((....)))..))) ?
Response line: -8.02

----------
Experiment: melting temperature; fluorescence melt of hairpins on a sequencing array, two-state fit, raised by 9.35 °C to match UV melts
Conditions: sodium 0.088 M
Short version: Tm at least 50 °C is 1 (yes), less is 0 (no).

Past entries and their recorded results:
Prompt line: Would you say GATCTAGGCTTAGATC ((((((....)))))) shows Tm at minimum 50 °C?
Response line: 0 (no)

Prompt line: Now try GTGACAGCGAAAGCTCAC (((..(((....)))))) .
Response line: 0 (no)

Prompt line: Next: CGTCCGGAAACGGGACG ((((((....))).)))
Response line: 1 (yes)

Prompt line: Try this sequence next: GTGTTGGGAAACCAGTAC ((..(((....)))..))
Response line: 0 (no)

---
Prompt line: Decide: Tm of GATGGCGAAAGCCTAATC ((((((....)))..))) >= 50 °C?
Response line: 0 (no)
